System: VchCAST RNA-guided transposition machinery (E. coli BL21(DE3) host, lacZ target)
measurement.notes: relative integration efficiency (T-LR orientation) vs wild-type transposon end (log2 (normalized fold change)); transposon end mutated: right end (5 bp flank + 75 bp right end); higher = more efficient transposition
Quick rule for you: relative integration efficiency (log2) at -0.2 or higher means met, lower means not met.

ACATTTGTTGATACCACCATCAAATGATAATTACACCCATACATTGATAATTATCACACCCAATTTAACTATAACGCTCTGATCATAGTCAGACCAACATTGCTACGACCCGTATTCGCACCGACAC ... not met
ACATTTGTAAAAAAAACCATACGTTGATTTTACGAAACCATACGCTGAAATAATCACAACCATAAATTGAAATTGCCTCTGATCATAGTCAGACCAACATTGCTACGACCCGTATTCGCACCGACAC ... not met
ACATTTGTTGATACAACCATAAAATGATAATTACAACCATATATTGATATCTCTCACACCCATAAATTGATATTGCCTCTGATCATAGTCAGACCAACATTGCTACGACCCGTATTCGCACCGACAC ... met
ACATTTGTTGATACAACCATAAAGTGATATTTACAACCATAAAGTGATATTTATCACACCCATAAATTGATAATTACTCTGATCATAGTCAGACCAACATTGCTACGACCCGTATTCGCACCGACAC ... met
ACATTTGTTGATACAACCATAAAAGGATAATTACCCCCATCAATTGATAATTATCCCACCCCATTTAACTATAACGCTCTGATCATAGTCAGACCAACATTGCTACGACCCGTATTCGCACCGACAC ... not met

Is relative integration efficiency (log2) for ACATTTGTTGATACAACCATAAAATGATATTTACACCCATAAATTGATATTTATCACACCCATAAATTGATAATGCCTCTGATCATAGTCAGACCAACATTGCTACGACCCGTATTCGCACCGACAC at or above -0.2?
met

Is relative integration efficiency (log2) for ACATTTGTTGATACAACCATACAATGATAATTACACCCATACATTGATAATTATCACACCCATACATTGATATTGCCTCTGATCATAGTCAGACCAACATTGCTACGACCCGTATTCGCACCGACAC at or above -0.2?
not met

Is relative integration efficiency (log2) for ACATTTGTTGATACAACCATAAAATGATAATTACACCCATAAATTGATAATTATCACACCCATAAAGGTCGCGGTAAGAGGATCATAGTCAGACCAACATTGCTACGACCCGTATTCGCACCGACAC at or above -0.2?
met

Is relative integration efficiency (log2) for ACATTTGTTGATACAACCATAAAATGATAATTAGAAACCATACGCTGAAATAATCACACCCATAAATTGATATTGCCTCTGATCATAGTCAGACCAACATTGCTACGACCCGTATTCGCACCGACAC at or above -0.2?
not met

Is relative integration efficiency (log2) for ACATTTGTTGATACAACCATAAAATGATAATTACACCCATAAATTGATAATTATCACACCCATAAATTGATATTGCCTCTGGCGCTCTGTACCCCGCTCGGTCCTCCCGCGCATCGCGCACCGACAC at or above -0.2?
met
